# credit: PubChem BioAssay (EPA / NIEHS)

- PROTOCOL DETAILS: ATG_TAL_CIS: Attagene CIS-FACTORIAL HepG2 Assay for human TAL Basal Promoter (AID 2282966);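 note: background control endpoint measuring basal TAL promoter reporter mRNA not a specific factor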
- RUN PARAMETERS: HepG2 Attagene cis-factorial TAL promoter reporter; actives raise or lower the signal
The source made the active and inactive calls. Rule for the calls: active = hit-call score of the fitted dose curve at least 0.9, where 1 is the maximum; inactive = score below 0.9.
Use one of these outcomes when replying: active, inactive

The following molecules have reported results that may help.
MOLECULE: CCCCN(CCCC)N=O
GROUP: inactive
--
MOLECULE: O=C(O)C1C(C(=O)O)C2(Cl)C(Cl)=C(Cl)C1(Cl)C2(Cl)Cl (centres undefined)
GROUP: inactive

Exercise: Record lookup: outcome of this test for "c1nc[nH]n1" ?
Solution: inactive

Exercise: Record lookup: outcome of this test for "O=C(O)C(Cl)Cl" ?
Solution: inactive

Exercise: Record lookup: outcome of this test for "CCCCOCCOP(=O)(OCCOCCCC)OCCOCCCC" ?
Solution: inactive

Exercise: Record lookup: outcome of this test for C=C(C)C(=O)OCC1CO1 (centres undefined) ?
Solution: inactive

Exercise: Record lookup: outcome of this test for "CC1(C)CN=C(NN=C(/C=C/c2ccc(C(F)(F)F)cc2)/C=C/c2ccc(C(F)(F)F)cc2)NC1" ?
Solution: active
